Provenance of the data: PubChem BioAssay AID602318

Target: 26S proteasome non-ATPase regulatory subunit 14 (Homo sapiens) (UniProt O00487)
Sequence (O00487 whole entry, looked up): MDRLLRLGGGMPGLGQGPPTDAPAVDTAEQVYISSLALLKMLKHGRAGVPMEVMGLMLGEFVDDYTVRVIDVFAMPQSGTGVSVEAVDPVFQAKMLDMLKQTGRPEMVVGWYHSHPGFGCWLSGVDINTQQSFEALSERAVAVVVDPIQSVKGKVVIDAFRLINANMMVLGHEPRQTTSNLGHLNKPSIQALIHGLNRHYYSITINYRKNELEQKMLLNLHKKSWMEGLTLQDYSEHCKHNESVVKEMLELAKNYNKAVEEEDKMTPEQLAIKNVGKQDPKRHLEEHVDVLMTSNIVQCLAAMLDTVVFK
Test: Rpn11 (PSMD14) deubiquitinase inhibitors, confirmation, biochemical, fluorescence polarization, single concentration (AID 602318)
Settings: purified human 26S proteasome, Ub4-pepOG fluorescence polarization; at 20 µM; proteasome pretreated with epoxomicin
Out of some 1,900 compounds screened, about 550 (29%) were called active. Cut-off read from the data, not from the text of the source: active = inhibition above about 40%; inactive = the rest. These entries were drawn from the full list.
Labels: TRUE for active, FALSE for inactive

>>> df
                                   molecule  label_value
0  O=C(O)c1ccc(NN=CC2=C(N3CCOCC3)/C(=C/c3ccccc3)CC2)cc1         TRUE
1  COc1ccc(Cl)cc1NC(=O)CCS(=O)(=O)c1ccc(Br)cc1         TRUE
2  C/C(=N/Nc1nc(-c2ccccc2)c(CC(=O)O)s1)c1ccccc1        FALSE
3  O=C1NC(=O)C2C1C(c1ccc([N+](=O)[O-])cc1)=NN2Cc1ccccc1 (stereo not given)        FALSE
4  Cc1cc(/C=C2/SC(=O)N(CC(=O)N3CCCC3)C2=O)ccc1N1CCOCC1        FALSE
5        O=C(OCc1cc2ccccc2[nH]c1=O)c1cccnc1        FALSE
6  Cc1ccc(NC(=O)c2c(NC(=O)CCC(=O)O)sc3c2CCCCC3)cc1        FALSE
7  CCC(C)Cn1c(O)cc2nn(-c3nc4ccccc4s3)c(=O)c-2c1C (stereo not given)        FALSE
8  CS(=O)(=O)c1ccc2c(c1)SC1=NC(=O)/C(=C/c3ccco3)C(=N)N12         TRUE
9  Cc1c(N=Nc2ccc(N(C)C)cc2)c(=O)n(-c2ccccc2)n1C         TRUE

====

Biological target: 26S proteasome non-ATPase regulatory subunit 14 (Homo sapiens) (UniProt O00487)
Assay: Rpn11 (PSMD14) deubiquitinase inhibitors, confirmation, biochemical, fluorescence polarization, single concentration (AID 602318)
Conditions: purified human 26S proteasome, Ub4-pepOG fluorescence polarization; at 20 µM; proteasome pretreated with epoxomicin
The campaign covered roughly 1,900 compounds. About 550 (29%) were called active. No stated cut-off is given here; in the data, active means inhibition above about 40%; inactive means the rest. These entries were drawn from the full list.
Labels: y (active), n (inactive)

>>> print(df.to_string())
                                   compound  label_value
0  O=C(COc1cccc(F)c1)Oc1ccc(C(=O)c2ccccc2)cc1            n
1             Cc1nc2ccc(C(=O)N3CCSCC3)cc2s1            n
2    CCOc1cc(/C=C2\SC(N3CCCCC3)=NC2=O)ccc1O            n
3  Nc1nonc1-n1nnc(C(=O)N/N=C/c2cc(Br)ccc2O)c1CSC1=NCCS1            n
4  COc1ccc(NC(=O)Cn2c(-c3ccc(OC)cc3)cn(-c3ccc(C)cc3)c2=O)cc1            y
5  CC1CCN(c2ccc3c(c2)S(=O)(=O)c2cc(C(=O)O)ccc2C3=O)CC1            n
6  CC(C)Oc1ccc(/C=C(\NC(=O)/C=C/c2ccco2)C(=O)NCCc2nc3ccccc3[nH]2)cc1            y
7  COc1ccc(CC(=O)Nc2ccc(-c3nnc(-c4ccc(C)cc4)o3)cc2)cc1            n
8              CN(C)CCOC1c2ccccc2-c2ccccc21            n
9  CCOC(=O)N1CCC(NC(=O)C(NS(=O)(=O)c2ccc3c(c2)CCN3C(=O)CC)C(C)C)CC1 (stereo not given)            n

====

Target: 26S proteasome non-ATPase regulatory subunit 14 (Homo sapiens) (UniProt O00487)
Assay: Rpn11 (PSMD14) deubiquitinase inhibitors, confirmation, biochemical, fluorescence polarization, single concentration (AID 602318)
Conditions: purified human 26S proteasome, Ub4-pepOG fluorescence polarization; at 20 µM; proteasome pretreated with epoxomicin
In all, about 1,900 compounds went through this assay and about 550 (29%) were called active. Rule as the data show it: active = inhibition above about 40%; inactive = the rest. The list is a sample of the results.
Labels: Yes (active), No (inactive)

In [3]: df
Out[3]:
                                    compound                                    system  label_value
 0  CCOc1ccc(-n2c(O)c(/C=N/Nc3nnc(C)c(=O)[nH]3)c3ccccc3c2=O)cc1  26S proteasome non-ATPase regulatory subunit 14 (Homo sapiens) (UniProt O00487)           No
 1  COc1cccc(/C=C(/CC(=O)Nc2ccc(N3CCOCC3)cc2)c2nc3ccccc3s2)c1  26S proteasome non-ATPase regulatory subunit 14 (Homo sapiens) (UniProt O00487)          Yes
 2  CCC/C=C(\CCC)C(NC(=O)Cc1ccccc1)c1ccc(C(=O)OC)cc1 (stereo not given)  26S proteasome non-ATPase regulatory subunit 14 (Homo sapiens) (UniProt O00487)           No
 3  COc1ccc(-n2c(SCC(=O)Nc3sc4c(c3C#N)CCCC4)nnc2-c2ccc(O)cc2)cc1  26S proteasome non-ATPase regulatory subunit 14 (Homo sapiens) (UniProt O00487)           No
 4  C=CCn1c(SCC(=O)NCc2ccccc2)nnc1-c1cc(Br)ccc1O  26S proteasome non-ATPase regulatory subunit 14 (Homo sapiens) (UniProt O00487)           No
 5               Cc1nc2ccccc2n1C(=O)N1CCOCC1  26S proteasome non-ATPase regulatory subunit 14 (Homo sapiens) (UniProt O00487)           No
 6  COc1ccc2[nH]c(=O)c(-c3noc(-c4ccc(F)cc4)n3)cc2c1  26S proteasome non-ATPase regulatory subunit 14 (Homo sapiens) (UniProt O00487)           No
 7  CC(=O)/C(=N\Nc1ccc(Cl)cc1Cl)Sc1cccc2cccnc12  26S proteasome non-ATPase regulatory subunit 14 (Homo sapiens) (UniProt O00487)          Yes
 8  CC(=O)Nc1ccccc1Sc1ccc2c3c(cccc13)C(=O)N(c1ccc(C)cc1)C2=O  26S proteasome non-ATPase regulatory subunit 14 (Homo sapiens) (UniProt O00487)           No
 9      C=CCn1c(=S)[nH]c2scc(-c3ccco3)c2c1=O  26S proteasome non-ATPase regulatory subunit 14 (Homo sapiens) (UniProt O00487)           No
10       CCCOc1ccc(Cn2c(O)cc(=O)[nH]c2=O)cc1  26S proteasome non-ATPase regulatory subunit 14 (Homo sapiens) (UniProt O00487)           No
11  C=CC1=C(C(=O)O)N2C(=O)[C@@H](NC(=O)/C(=N/OCC(=O)O)c3csc(N)n3)[C@H]2SC1  26S proteasome non-ATPase regulatory subunit 14 (Homo sapiens) (UniProt O00487)          Yes
12  N#Cc1c(-c2cccs2)nc(SCC(=O)c2ccc(Br)cc2)[nH]c1=O  26S proteasome non-ATPase regulatory subunit 14 (Homo sapiens) (UniProt O00487)          Yes
13  CCCCCCCCCCOC(=O)Cn1c(COc2cccc(OC)c2)[n+](C)c2ccccc21  26S proteasome non-ATPase regulatory subunit 14 (Homo sapiens) (UniProt O00487)           No
14  CCc1ccc(-c2cc(C(=O)NCc3ccco3)c3ccccc3n2)s1  26S proteasome non-ATPase regulatory subunit 14 (Homo sapiens) (UniProt O00487)          Yes
15  CCN(CC)C(=O)CSc1nc2ccccc2n1CC(=O)N1CCN(c2ccccc2OC)CC1  26S proteasome non-ATPase regulatory subunit 14 (Homo sapiens) (UniProt O00487)           No
16  COc1cc(/C=C2/SC(=S)N(Cc3ccccc3)C2=O)cc(OC)c1O  26S proteasome non-ATPase regulatory subunit 14 (Homo sapiens) (UniProt O00487)          Yes
17        CC(C)(C)NC(=O)CSC(=Nc1ccccc1F)NC#N  26S proteasome non-ATPase regulatory subunit 14 (Homo sapiens) (UniProt O00487)           No
18  Cc1c(NC(=O)CSc2cccc3cccnc23)c(=O)n(-c2ccccc2)n1C  26S proteasome non-ATPase regulatory subunit 14 (Homo sapiens) (UniProt O00487)           No
19           CSC1=N/C(=C\C=C\c2cccs2)C(=O)S1  26S proteasome non-ATPase regulatory subunit 14 (Homo sapiens) (UniProt O00487)           No
